SUBJECT_OF_TEST: P-tau peptide (wild-type P-tau peptide and its pure cis or cis-locked, and pure trans counterparts)
MEASUREMENT_DESCRIPTION: Biacore (SPR) with P-tau peptide
Lab note: cut-off is 4 nM. Strictly less in Kd is MET. Exactly 4 nM or more is NOT MET.

Please review the entries below; each comes with its answer.
>>> assigned_category("Cis-mAb HT15 (humanized) (antibody, V domains shown) VH: QVQLVQSGAEVKKPGASVKMSCKASGYTFTSYWIHWVKQRPGQGLEWIGVIDPSDSYTRYNQKFKGRATLTVDTSASTAYMELSSLRSEDTAVYYCTTWEVDYWGQGTLVTVSS VL: DVVMTQSPLSLPVTLGQPASISCRSSQSLVHSDGNTYLNWYLQKPGQSPQLLIYKVSNRFSGVPDRFSGSGSGTDFTLKISRVEAEDVGVYFCSQSTHVPWTFGGGTKVEIK")
"NOT MET"
>>> assigned_category("Cis-mAb HT9 (humanized) (antibody, V domains shown) VH: QVQLVQSGAELKKPGASVKMSCKASGYTFTSYWIHWVKQRPGQGLEWIGVIDPSDSYTRYNQKFKGRATLTVDTSASTAYMQLSSLTSEDSAVYYCTTWEVDYWGQGTTVTVSS VL: DVVMTQSPLSLPVTLGQPASISCRSSQSLVHSDGNTYLHWYLQKPGQSPQLLIYKVSNRFSGVPDRFSGSGSGTDFTLKISRVEAEDVGVYYCSQSTHVPWTFGGGTKVEIK")
"MET"
>>> assigned_category("Cis-mAb HT7 (humanized) (antibody, V domains shown) VH: QVQLVQSGAEVKKPGASVKVSCKASGYTFTSYWIHWVRQRPGQGLEWIGVIDPSDSYTRYNQKFKGRVTLTVDTSASTAYMELSSLRSEDTAVYYCTTWEVDYWGQGTLVTVSS VL: DVVMTQSPLSLPVTLGQPASISCRSSQSLVHSDGNTYLHWYLQKPGQSPQLLIYKVSNRDSGVPDRFSGSGSGTDFTLKISRVEAEDVGVYFCSQSTHVPWTFGGGTKVEIK")
"NOT MET"

Please determine if Cis-mAb HT16 (humanized) (antibody, V domains shown) VH: QVQLVQSGAEVKKPGASVKVSCKASGYTFTSYWIHWVRQRPGQGLEWIGVIDPSDSYTRYNQKFKGRVTLTVDTSASTAYMELSSLRSEDTAVYYCTTWEVDYWGQGTLVTVSS VL: DVVMTQSPLSLPVTLGQPASISCRSSQSLVHSDGNTYLNWYLQKPGQSPQLLIYKVSNRFSGVPDRFSGSGSGTDFTLKISRVEAEDVGVYFCSQSTHVPWTFGGGTKVEIK is below 4 nM in terms of Kd.
MET

Please determine if Cis-mAb HT18 (humanized) (antibody, V domains shown) VH: QVQLVQSGAEVKKPGSSVKVSCKASGYTFTSYWIHWVRQAPGQGLEWMGVIDPSDSYTRYNQKFKGRVTITRDTSMSTAYTELSSLRSEDTAVYYCTTWEVDYWGQGTLVTVSS VL: DIQMTQSPSTLSASVGDRVTITCRSSQSLVHSDGNTYLHWYQQKPGKAPKLLIYKVSNRFSGVPSRFSGSGSGTEFTLTISSLQPDDFATYYCSQSTHVPWTFGQGTKLEIK is below 4 nM in terms of Kd.
MET

Please determine if Cis-mAb HT6 (humanized) (antibody, V domains shown) VH: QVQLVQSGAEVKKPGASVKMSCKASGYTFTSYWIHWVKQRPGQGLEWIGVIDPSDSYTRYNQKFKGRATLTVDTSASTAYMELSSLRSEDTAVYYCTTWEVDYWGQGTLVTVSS VL: DVVMTQSPLSLPVTLGQPASISCRSSQSLVHSDGNTYLHWYLQKPGQSPQLLIYKVSNRDSGVPDRFSGSGSGTDFTLKISRVEAEDVGVYFCSQSTHVPWTFGGGTKVEIK is below 4 nM in terms of Kd.
NOT MET

Please determine if Cis-mAb HT12 (humanized) (antibody, V domains shown) VH: QVQLVQSGAEVKKPGASVKVSCKASGYTFTSYWIHWVRQRPGQGLEWIGVIDPSDSYTRYNQKFKGRVTITRDTSASTAYMELSSLRSEDTAVYYCTTWEVDYWGQGTLVTVSS VL: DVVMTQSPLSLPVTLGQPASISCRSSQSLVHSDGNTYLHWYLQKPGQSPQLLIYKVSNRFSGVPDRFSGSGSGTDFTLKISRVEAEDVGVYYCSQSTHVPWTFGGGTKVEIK is below 4 nM in terms of Kd.
MET

Please determine if Cis-mAb HT5 (humanized) (antibody, V domains shown) VH: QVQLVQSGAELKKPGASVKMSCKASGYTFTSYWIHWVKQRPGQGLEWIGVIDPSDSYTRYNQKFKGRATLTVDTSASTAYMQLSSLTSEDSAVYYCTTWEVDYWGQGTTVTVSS VL: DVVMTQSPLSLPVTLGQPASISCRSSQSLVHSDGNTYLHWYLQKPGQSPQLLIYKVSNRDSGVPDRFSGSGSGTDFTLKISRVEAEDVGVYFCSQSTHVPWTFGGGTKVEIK is below 4 nM in terms of Kd.
NOT MET

Please determine if Cis-mAb HT8 (humanized) (antibody, V domains shown) VH: QVQLVQSGAEVKKPGASVKVSCKASGYTFTSYWIHWVRQRPGQGLEWIGVIDPSDSYTRYNQKFKGRVTITRDTSASTAYMELSSLRSEDTAVYYCTTWEVDYWGQGTLVTVSS VL: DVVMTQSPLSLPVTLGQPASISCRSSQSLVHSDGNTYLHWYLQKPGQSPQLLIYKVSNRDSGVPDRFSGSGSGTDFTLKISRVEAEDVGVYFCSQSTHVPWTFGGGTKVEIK is below 4 nM in terms of Kd.
NOT MET
